Each recorded value in this set is attributed to PubChem BioAssay (EPA / NIEHS).

assay.comment: BSK_KF3CT_SRB: Viability Assessment in the BioMAP Diversity Plus: KF3CT Assay (AID 2283069);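 note: total protein by sulforhodamine B staining as a cytotoxicity measure; read 24 h after compound addition; fitted for both signal gain and loss against DMSO baseline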
test.parameters: primary human keratinocytes with fibroblasts
Activity calls are given as the source filed them. Rule for the calls: active = hit-call score of the fitted dose curve at least 0.9, where 1 is the maximum; inactive = score below 0.9.
Outcomes: yes (1) (active), no (0) (inactive)

* C=CCN(CC=C)C(=O)C(Cl)Cl | no (0)
* CC(=O)/C=C/c1ccccc1 | no (0)
* COc1ccc(CO)cc1 | no (0)
* COC(C)(C)CCC[C@H](C)C/C=C/C(C)=C/C(=O)OC(C)C | no (0)
* CC1(C)[C@H](C(=O)O[C@H](C#N)c2cccc(Oc3ccccc3)c2)[C@@H]1C=C(Br)Br | no (0)
* O=C1C=CC(=O)C=C1 | no (0)
* CNC(=O)Oc1cc(C)c(SC)c(C)c1 | no (0)
* CCC(C)c1cc([N+](=O)[O-])cc([N+](=O)[O-])c1OC(=O)C=C(C)C (stereo not given) | yes (1)
* Cc1ccc(OP(=O)(Oc2ccc(C)cc2)Oc2ccc(C)cc2)cc1 (tested in a mixture with another compound) | no (0)
* O=S(=O)(c1ccccc1)c1ccccc1 | no (0)
* O=C(CCl)c1ccccc1 | yes (1)
* O=[N+]([O-])C=Cc1ccccc1 | yes (1)
* CCCCCCCCCCCC#N | no (0)
* O=C1C(Cl)=C(Cl)C(=O)C(Cl)=C1Cl | no (0)
* O=C(O)CCCc1ccc(N(CCCl)CCCl)cc1 | no (0)
